# MEASURED_ON: GST-tagged recombinant human TYRO3 kinase domain (Homo sapiens (Human))
# Sequence (Q06418 518-790): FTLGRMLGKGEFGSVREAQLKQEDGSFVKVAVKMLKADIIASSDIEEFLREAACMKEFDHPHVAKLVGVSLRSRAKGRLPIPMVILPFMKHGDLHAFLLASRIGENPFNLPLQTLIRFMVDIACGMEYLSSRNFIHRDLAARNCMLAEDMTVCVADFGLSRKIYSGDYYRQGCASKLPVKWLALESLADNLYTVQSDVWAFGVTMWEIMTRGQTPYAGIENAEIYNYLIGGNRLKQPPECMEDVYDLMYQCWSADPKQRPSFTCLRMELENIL
# EXPERIMENT_DESCRIPTION: TYRO3 Enzyme Assay (LanthaScreen Eu Kinase Binding, TR-FRET)
# CONDITION_DESCRIPTION: averaged IC50
Catalogue of IC50 values

Worked set:
Ask | Entry under review: CCNc1cc2c(cn1)c(-c1cnn(C)c1)nn2[C@H]1CC[C@@H](Oc2nccc(C)c2F)CC1 . Reported IC50?
Reply | 0.01 to 0.1 µM

Ask | Look up IC50 for this compound: CCn1nc(O[C@H]2CC[C@@H](n3nc(-c4cnn(C)c4)c4cnc(NC)cc43)CC2)ccc1=O
Reply | 1 to 10 µM

Ask | Recorded IC50 for CNc1cc2c(cn1)c(-c1ccc(CN3CCN(C)CC3)cc1)nn2[C@H]1CC[C@@H](Oc2cnn(C)c2C(F)(F)F)CC1 , please?
Reply | 0.01 to 0.1 µM

Ask | So what does the record say about IC50 for CCNc1cc2c(cn1)c(-c1cnn(C)c1)nn2[C@H]1CC[C@@H](Oc2nccc(C(F)(F)F)c2N(C)C)CC1 ?
Reply | 0.01 to 0.1 µM

More entries:
Ask | Name the recorded IC50 for CNc1cc2c(cn1)c(-c1cnn(CCS(C)(=O)=O)c1)nn2[C@H]1CC[C@@H](Oc2nccnc2C)CC1 .
Reply | 0.01 to 0.1 µM

Data origin, for the record: patent US11247990B1
